System: S. aureus strain RN4220
Assay Notes: microbe, parasite or virus in culture
Assay type: cell-based
Test Context: Staphylococcus aureus, RN4220, read-out: MIC S. aureus RN4220 WT
Quantity Measured: MIC

>>> assay_value("CC(=O)Nc1ccc(/C=C/C(=O)N2CCC(c3ccccn3)C2)cn1 (centres unmarked)")
"> 100 µg/mL"
>>> assay_value("CC(=O)Nc1ccc(CC(=O)N2CCC(c3ccc4c(c3)OCO4)C2)cc1 (centres unmarked)")
"> 200 µg/mL"
>>> assay_value("CC(=O)Nc1ccc(/C=C/C(=O)N2CCC(c3nccs3)C2)cn1 (centres unmarked)")
"> 100 µg/mL"
>>> assay_value("CC(=O)Nc1ccc(/C=C/C(=O)N2CCC(c3ccc4c(c3)OCO4)C2)cn1 (centres unmarked)")
"> 200 µg/mL"
>>> assay_value("COc1ccc(C2CCN(C(=O)/C=C/c3ccc(NC(C)=O)nc3)C2)cc1 (centres unmarked)")
"> 200 µg/mL"

Observed MIC on S. aureus strain RN4220, entry CC(C)S(=O)(=O)c1ccc(CC(=O)N2CCC(c3ccc4c(c3)OCO4)C2)cc1 (centres unmarked) , equals > 200 µg/mL

---

Collected MIC values appear next to each entry.
Tested on: S. aureus strain RN4220
Assay Notes: microbe, parasite or virus in culture
Type: cell-based
Test Context: Staphylococcus aureus, RN4220, read-out: MIC S. aureus RN4220 WT

A selection of reference data follows.
>>> assay_value("O=C(Cc1ccccc1Cl)N1CCC(c2ccccn2)C1 (centres unmarked)")
"100 µg/mL"
>>> assay_value("O=C(Cc1c(F)cccc1F)N1CCC(c2ccccc2)C1 (centres unmarked)")
"50 µg/mL"
>>> assay_value("COc1ccc(C2CCN(C(=O)Cc3ccc(NC(C)=O)cc3)C2)cc1 (centres unmarked)")
"> 200 µg/mL"

// sample COc1ccccc1C1CCN(C(=O)Cc2ccccc2F)C1 (centres unmarked) , its MIC was 50 to 100 µg/mL

Reported MIC ( O=C(Cc1ccccc1Cl)N1CCC(c2nccs2)C1 (centres unmarked) ) = 50 µg/mL

Looking up COc1ccccc1C1CCN(C(=O)Cc2ccccc2Cl)C1 (centres unmarked) , I see its MIC listed as 12.5 to 25 µg/mL

So for COc1ccccc1C1CCN(C(=O)/C=C/c2ccc(NC(C)=O)nc2)C1 (centres unmarked) , the logged MIC turned out to be 12.5 to 25 µg/mL

// field: MIC; key: O=C(Cc1ccccc1F)N1CCC(c2ccc3c(c2)OCO3)C1 (centres unmarked) ; value = > 200 µg/mL
